Data credit: patent US9650390B2

- assay: In vitro dissociation in blood plasma of rabbit
- Assay type: in vitro ADME, New Zealand white rabbits
- assay-setup: fresh New Zealand white rabbit plasma, 37° C., 2 min
Measured Sampling time/Dissociation percent (%) 2 min values are reported for all entries that follow.
Enter your answer as a number in %; do not include the unit.

Quick one: Sampling time/Dissociation percent (%) 2 min for CC(=O)O[C@@]12CO[C@@H]1C[C@H](O)[C@@]1(C)C(=O)[C@H](O)C3=C(C)[C@@H](OC(=O)[C@H](OC(=O)[C@H](F)CCN(C)C)[C@@H](NC(=O)OC(C)(C)C)c4ccccc4)C[C@@](O)([C@@H](OC(=O)c4ccccc4)[C@H]21)C3(C)C.CS(=O)(=O)O [Compound C4] ?
81.6

Quick one: Sampling time/Dissociation percent (%) 2 min for CC(=O)O[C@H]1C(=O)[C@@]2(C)[C@H]([C@H](OC(=O)c3ccccc3)[C@]3(O)C[C@H](OC(=O)[C@H](OC(=O)[C@H](F)CCN(C)C)[C@@H](NC(=O)c4ccccc4)c4ccccc4)C(C)=C1C3(C)C)[C@]1(OC(C)=O)CO[C@@H]1C[C@@H]2O.CS(=O)(=O)O [Compound C1] ?
77.2

Quick one: Sampling time/Dissociation percent (%) 2 min for CC(=O)O[C@H]1C(=O)[C@@]2(C)[C@H]([C@H](OC(=O)c3ccccc3)[C@]3(O)C[C@H](OC(=O)[C@H](OC(=O)[C@@H](F)CCN(C)C)[C@@H](NC(=O)c4ccccc4)c4ccccc4)C(C)=C1C3(C)C)[C@]1(OC(C)=O)CO[C@@H]1C[C@@H]2O.Cl [Compound 02] ?
68.2
